- Method: Selectivity ratio of IC50 for human CCD-112CoN cells to IC50 for human HT29 cells
- Type: ADME, cell-based, HT-29
- Experimental Conditions: CCD-112CoN cells versus HT29 cells, read-out: Ratio IC50
Listed below: selectivity ratio values for each entry.

Smiles String	Censoring Qualifier	selectivity ratio
C=C(C)[C@H]1Cc2c(ccc3c2O[C@@H]2COc4cc(OC)c(OC)cc4[C@]2(O)C3=O)O1	=	1020
C=C(C)[C@H]1Cc2c(ccc3c2O[C@@H]2COc4cc(OC)c(OC)cc4[C@@H]2C3=O)O1	>	423
CC(=O)O[C@H]1C(=O)[C@@]2(C)[C@H]([C@H](OC(=O)c3ccccc3)[C@]3(O)C[C@H](OC(=O)[C@H](O)[C@@H](NC(=O)c4ccccc4)c4ccccc4)C(C)=C1C3(C)C)[C@]1(OC(C)=O)CO[C@@H]1C[C@@H]2O	=	38300
